The measurements presented in this section are drawn from ChEMBL document CHEMBL1961873.

study-system: Serine/threonine-protein kinase PAK 5 (Homo sapiens) (UniProt Q9P286);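 note: values are mean percent inhibition of PAK5 from a kinase inhibitor set screen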
Sequence (Q9P286 whole entry, looked up): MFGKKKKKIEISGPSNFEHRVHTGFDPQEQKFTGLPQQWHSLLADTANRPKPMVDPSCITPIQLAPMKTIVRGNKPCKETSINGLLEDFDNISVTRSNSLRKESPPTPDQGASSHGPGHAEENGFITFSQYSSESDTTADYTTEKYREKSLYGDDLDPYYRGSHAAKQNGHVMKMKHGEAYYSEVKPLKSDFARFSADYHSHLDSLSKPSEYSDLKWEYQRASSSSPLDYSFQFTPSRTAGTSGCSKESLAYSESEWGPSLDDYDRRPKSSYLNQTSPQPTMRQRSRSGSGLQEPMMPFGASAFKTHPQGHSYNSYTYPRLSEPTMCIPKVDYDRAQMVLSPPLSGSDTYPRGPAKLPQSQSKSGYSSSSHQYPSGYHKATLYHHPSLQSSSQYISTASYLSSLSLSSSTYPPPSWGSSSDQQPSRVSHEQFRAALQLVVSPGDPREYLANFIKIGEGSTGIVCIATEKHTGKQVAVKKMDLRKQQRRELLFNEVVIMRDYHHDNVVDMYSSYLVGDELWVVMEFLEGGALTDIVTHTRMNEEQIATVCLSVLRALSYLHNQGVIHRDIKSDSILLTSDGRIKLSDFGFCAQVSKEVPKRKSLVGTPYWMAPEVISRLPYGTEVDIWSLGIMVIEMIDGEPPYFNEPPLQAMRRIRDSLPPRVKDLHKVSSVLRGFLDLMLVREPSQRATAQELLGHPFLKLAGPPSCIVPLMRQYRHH
measurement-setup: at 0.1 µM
# maps each entry to its inhibition
Quick reminder: number only, in %, skip the unit.

Example entries begin here.
COc1cc2c(cc1Nc1nc(Nc3cccc(F)c3C(N)=O)c3cc[nH]c3n1)N(C(=O)CN1CCN(C(C)C)CC1)CC2 ... 2.45
CCS(=O)(=O)c1ccc(OC)c(Nc2ncc(-c3cccc(F)c3)o2)c1 ... 7.29
CCOc1ccc2c(-c3ccnc(Nc4cc(OC)cc(C(F)(F)F)c4)n3)cnn2n1 ... 0.09
Fc1cccc(COc2ccc(Nc3ncncc3C#Cc3ccccc3)cc2Cl)c1 ... 1.61
NS(=O)(=O)c1cccc(N/C=C2\C(=O)Nc3ccccc32)c1 ... -8.13
CN(C)CCNC(=O)Nc1ccc(N(C)c2ccnc(Nc3ccc(CS(C)(=O)=O)cc3)n2)cc1 ... 1.15

Determine its reported inhibition: COc1cc(N2CCN(C(C)C)CC2)ccc1Nc1nc(Nc2cccc3ncccc23)c2cc[nH]c2n1
-2.43

Specify reported inhibition for the molecule shown: N#Cc1cccc(Nc2ncc(-c3ccccc3)o2)c1
-5.2

Give a short answer stating reported inhibition for CC1(C)CC(n2cnc(-c3ccc(F)cc3)c2-c2ccnc(N)n2)CC(C)(C)N1 .
4.67
